Activity overview
TARGET UNDER TEST: Vitamin D3 receptor (Homo sapiens) (UniProt P11473)
Sequence (P11473 whole entry): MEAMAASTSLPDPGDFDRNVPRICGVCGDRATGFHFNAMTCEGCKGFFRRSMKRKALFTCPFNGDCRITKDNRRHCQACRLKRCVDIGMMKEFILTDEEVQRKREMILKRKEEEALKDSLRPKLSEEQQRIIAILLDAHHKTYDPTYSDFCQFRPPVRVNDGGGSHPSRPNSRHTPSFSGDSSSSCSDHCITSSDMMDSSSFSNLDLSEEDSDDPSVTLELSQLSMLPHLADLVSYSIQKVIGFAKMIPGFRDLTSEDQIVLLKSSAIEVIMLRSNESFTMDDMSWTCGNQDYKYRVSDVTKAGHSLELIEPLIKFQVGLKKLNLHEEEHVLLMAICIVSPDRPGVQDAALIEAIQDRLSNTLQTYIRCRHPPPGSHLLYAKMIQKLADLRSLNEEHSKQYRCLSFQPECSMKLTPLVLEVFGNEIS
METHOD DESCRIPTION: Agonist activity at human VDR in human MG63 cells assessed as stimulation of osteocalcin production by enzyme immunoassay relative to 1,25(OH)2D3
Assay type: functional, cell-based
Set-up: concentration or dose not given beside the values
CONDITIONS USED: MG-63
READOUT LABEL: Activity (%)

> print(dat)
                                   compound  unit.descriptor  limit.qualifier  value.observed
1  CCC(CC)(c1ccc(OCC(O)C(C)(C)C)c(C)c1)c1ccc(OC[C@@H](O)CCC(=O)O)c(C)c1 (mixture of isomers)                %                =             484
2  CCC(CC)(c1ccc(OCC(=O)O)c(C)c1)c1ccc(OCC(O)C(C)(C)C)c(C)c1 (racemic)                %                <              13
3  CCC(CC)(c1ccc(CCC(O)C(C)(C)C)c(C)c1)c1ccc(OC[C@@H](O)CCC(=O)O)c(C)c1 (mixture of isomers)                %                =              68
4  CCC(CC)(c1ccc(OCCC(=O)O)c(C)c1)c1ccc(OCC(O)C(C)(C)C)c(C)c1 (racemic)                %                =              49
5  CCC(CC)(c1ccc(CCC(O)C(C)(C)C)c(C)c1)c1ccc(OCCCCCC(=O)O)c(C)c1 (racemic)                %                =             168
6  CCC(CC)(c1ccc(OCCCCC(=O)O)c(C)c1)c1ccc(OCC(O)C(C)(C)C)c(C)c1 (racemic)                %                =             205
7  CCC(CC)(c1ccc(CCC(O)C(C)(C)C)c(C)c1)c1ccc(OCCCCC(=O)O)c(C)c1 (racemic)                %                =             368
8  CCC(CC)(c1ccc(CCC(O)C(C)(C)C)c(C)c1)c1ccc(OCCCCCCC(=O)O)c(C)c1 (racemic)                %                =             9.3
9  CCC(CC)(c1ccc(OCCCC(=O)O)c(C)c1)c1ccc(OCC(O)C(C)(C)C)c(C)c1 (racemic)                %                <              13

====

half-life overview
METHOD DESCRIPTION: Half life in Sprague-Dawley rat at 100 ug/kg, iv
Type: ADME, organism-based
CONDITIONS USED: in vivo, 0.1 mg/kg
READOUT LABEL: half-life (h)

> print(dat)
                                   molecule  readout.label  value.observed
1  CCC(CC)(c1ccc(OCCCCC(=O)O)c(C)c1)c1ccc(OCC(O)C(C)(C)C)c(C)c1 (racemic)      half-life             1.3
2  CCC(CC)(c1ccc(OCC(O)C(C)(C)C)c(C)c1)c1ccc(OC[C@@H](O)CCC(=O)O)c(C)c1 (mixture of isomers)      half-life            10.6

====

METHOD DESCRIPTION: Total clearance in Sprague-Dawley rat at 100 ug/kg, po
Assay type: ADME, organism-based
CONDITIONS USED: in vivo, 0.1 mg/kg
CL/F overview
READOUT LABEL: CL/F (mL/min/kg)

> print(dat)
                                   compound  readout.label  value.observed
1  CCC(CC)(c1ccc(OCC(O)C(C)(C)C)c(C)c1)c1ccc(OC[C@@H](O)CCC(=O)O)c(C)c1 (mixture of isomers)           CL/F            11.5
2  CCC(CC)(c1ccc(OCCCCC(=O)O)c(C)c1)c1ccc(OCC(O)C(C)(C)C)c(C)c1 (racemic)           CL/F             156

====

METHOD DESCRIPTION: Total clearance in Sprague-Dawley rat at 100 ug/kg, iv
Type: ADME, organism-based
CONDITIONS USED: in vivo, 0.1 mg/kg
clearance overview
READOUT LABEL: clearance (mL/min/kg)

> print(dat)
                                   compound  readout.label  value.observed
1  CCC(CC)(c1ccc(OCC(O)C(C)(C)C)c(C)c1)c1ccc(OC[C@@H](O)CCC(=O)O)c(C)c1 (mixture of isomers)      clearance            1.47
2  CCC(CC)(c1ccc(OCCCCC(=O)O)c(C)c1)c1ccc(OCC(O)C(C)(C)C)c(C)c1 (racemic)      clearance            50.9

====

Cmax overview
METHOD DESCRIPTION: Cmax in Sprague-Dawley rat at 100 ug/kg, po
Assay type: ADME, organism-based
Parameters: dose 100 ug/kg, route oral
CONDITIONS USED: in vivo, 0.1 mg/kg
READOUT LABEL: Cmax

> print(dat)
                                   compound  value.observed
1  CCC(CC)(c1ccc(OCCCCC(=O)O)c(C)c1)c1ccc(OCC(O)C(C)(C)C)c(C)c1 (racemic)       3.6 ng/mL
2  CCC(CC)(c1ccc(OCC(O)C(C)(C)C)c(C)c1)c1ccc(OC[C@@H](O)CCC(=O)O)c(C)c1 (mixture of isomers)      11.6 ng/mL

====

METHOD DESCRIPTION: AUC (infinity) in Sprague-Dawley rat at 100 ug/kg, po
Assay type: ADME, organism-based
Parameters: dose 100 ug/kg, time infinity, route oral
CONDITIONS USED: plasma, 0.1 mg/kg
READOUT LABEL: AUC(0-inf) (ng·h/mL)

> print(dat)
                                   compound  readout.label  value.observed
1  CCC(CC)(c1ccc(OCC(O)C(C)(C)C)c(C)c1)c1ccc(OC[C@@H](O)CCC(=O)O)c(C)c1 (mixture of isomers)     AUC(0-inf)             151
2  CCC(CC)(c1ccc(OCCCCC(=O)O)c(C)c1)c1ccc(OCC(O)C(C)(C)C)c(C)c1 (racemic)     AUC(0-inf)            10.9

====

METHOD DESCRIPTION: Oral bioavailability in Sprague-Dawley rat at 100 ug/kg
Assay type: ADME, organism-based
CONDITIONS USED: in vivo, 0.1 mg/kg
bioavailability overview
READOUT LABEL: bioavailability

> print(dat)
                                   compound    readout.label  value.observed
1  CCC(CC)(c1ccc(OCC(O)C(C)(C)C)c(C)c1)c1ccc(OC[C@@H](O)CCC(=O)O)c(C)c1 (mixture of isomers)  bioavailability             13%
2  CCC(CC)(c1ccc(OCCCCC(=O)O)c(C)c1)c1ccc(OCC(O)C(C)(C)C)c(C)c1 (racemic)  bioavailability             33%

====

Activity overview
TARGET UNDER TEST: Vitamin D3 receptor (Homo sapiens)
METHOD DESCRIPTION: Agonist activity at human VDR in human MG63 cells assessed as stimulation of VDRE-mediated luciferase reporter gene activity relative to 1,25(OH)2D3
Format: functional, cell-based
Parameters: concentration or dose not given beside the values
CONDITIONS USED: MG-63
READOUT LABEL: Activity

> print(dat)
                                   compound  readout.label  value.observed
1  CCC(CC)(c1ccc(CCC(O)C(C)(C)C)c(C)c1)c1ccc(OCCCCC(=O)O)c(C)c1 (racemic)       Activity             31%
2  CCC(CC)(c1ccc(CCC(O)C(C)(C)C)c(C)c1)c1ccc(OCCCCCCC(=O)O)c(C)c1 (racemic)       Activity            2.2%
3  CCC(CC)(c1ccc(OCCCC(=O)O)c(C)c1)c1ccc(OCC(O)C(C)(C)C)c(C)c1 (racemic)       Activity            2.6%
4  CCC(CC)(c1ccc(OCCC(=O)O)c(C)c1)c1ccc(OCC(O)C(C)(C)C)c(C)c1 (racemic)       Activity            6.2%
5  CCC(CC)(c1ccc(OCC(=O)O)c(C)c1)c1ccc(OCC(O)C(C)(C)C)c(C)c1 (racemic)       Activity            1.4%
6  CCC(CC)(c1ccc(OCCCCC(=O)O)c(C)c1)c1ccc(OCC(O)C(C)(C)C)c(C)c1 (racemic)       Activity             19%
7  CCC(CC)(c1ccc(CCC(O)C(C)(C)C)c(C)c1)c1ccc(OCCCCCC(=O)O)c(C)c1 (racemic)       Activity             16%
8  CCC(CC)(c1ccc(CCC(O)C(C)(C)C)c(C)c1)c1ccc(OC[C@@H](O)CCC(=O)O)c(C)c1 (mixture of isomers)       Activity             52%
9  CCC(CC)(c1ccc(OCC(O)C(C)(C)C)c(C)c1)c1ccc(OC[C@@H](O)CCC(=O)O)c(C)c1 (mixture of isomers)       Activity             20%
